- Tested on: ACHN
- experiment-summary: NCI tumour cell line growth inhibition, 48 h
Calls of active or inactive are those of the source. Rule as the data show it: active = GI50 up to about 1.1 µM and inactive = higher.
Reported GI50 values follow for various compounds

Use the examples below as a reference point.
CCOC(=O)C12CCC(c3c(C)cccc3C)(O1)C(C(=O)OC)=C2C(=O)OC (stereo unspecified); > 8.49 µM (inactive)
CCOC(=O)C1C(C(C)C)C2(C#N)C(=N)OC1(C)C2(C#N)C#N (stereo unspecified); > 100 µM (inactive)
Cn1cnnc1Sc1c([N+](=O)[O-])nc(-c2ccc([N+](=O)[O-])cc2)n1C; 18.6 µM (inactive)
CCOC(OCC)[C@H](N)[C@@H](O)[C@@H](O)[C@H]1COC(C)(C)O1; > 100 µM (inactive)
CC(CN(C)C)C(=O)c1ccccc1 (stereo unspecified); 24.8 µM (inactive)

Next, consider the following compound.
## Input Recorded GI50 for `COc1ccc([C@@H]2CC(=O)NCCCNCCCCNCCCN2)cc1` , please?
## Output > 100 µM (inactive)

###

- System: 786-0
- experiment-summary: NCI tumour cell line growth inhibition, 48 h
Active and inactive are the calls of the source. Rule as the data show it: active = GI50 up to about 1.1 µM and inactive = higher.
Reported GI50 values follow for various compounds

Use the examples below as a reference point.
NS(=O)(=O)c1ccc(NC(=O)Cc2nc3ccccc3s2)cc1; 19.4 µM (inactive)
Nc1c(-c2cccc3ccccc23)c2ccc([N+](=O)[O-])cc2c(=O)n1-c1nc2ccccc2s1; 5.64 µM (inactive)
CCOC(=O)c1c(NC(=O)c2ccc(Br)cc2)sc2c1CCCC2; > 100 µM (inactive)
CC1=CC(=O)/C(=C/NC(=O)NN)C(=O)O1; > 100 µM (inactive)
Cc1c2c(c(C)n1-c1ccccc1)C(=O)N(CCCCN1CCN(c3ccccc3)CC1)C2=O; 4.97 µM (inactive)

Next, consider the following compound.
## Input Recorded GI50 for `Clc1nc(Cl)c(Cl)c(Cl)n1` , please?
## Output 19.7 µM (inactive)

###

- Test system: OVCAR-4
- experiment-summary: NCI tumour cell line growth inhibition, 48 h
Active and inactive are the calls of the source. Rule as the data show it: active = GI50 up to about 1.1 µM and inactive = higher.
reported-metric: GI50

C/C(=N\NC(N)=S)C(CN1CCCCC1)C(C1=C(O)c2ccccc2OC1)c1ccccc1 (centres undefined); 83 µM (inactive)

## Input Recorded GI50 for `COC(=O)c1c(O)c(C#N)c2[nH]c3ccccc3n2c1=O` , please?
## Output > 100 µM (inactive)

## Input Recorded GI50 for CN(C)C(=O)C(F)(F)C(c1ccc(C(F)(F)F)cc1)C1C(=O)N(C)C(=O)N(C)C1=O (centres undefined) , please?
## Output > 100 µM (inactive)

## Input Recorded GI50 for `Cc1cc(N(CCC#N)CCC#N)ccc1/N=N/c1ccc(Br)cc1` , please?
## Output > 100 µM (inactive)

## Input Recorded GI50 for `C1=CN2C[n+]3cccc(OCc4ccccc4)c3N=C2C(OCc2ccccc2)=C1` , please?
## Output 4.81 µM (inactive)

## Input Recorded GI50 for CN1C(=O)C23CCCC2CC1(c1ccccc1)S3 (centres undefined) , please?
## Output 56.1 µM (inactive)

## Input Recorded GI50 for `CCN(CC)CCNc1ccc2ncn3c4ccc(O)cc4c(=O)c1c23` , please?
## Output 1.28 µM (inactive)

## Input Recorded GI50 for CC(=O)O[C@H]1C(=O)[C@@]2(C)[C@H]([C@H](OC(=O)c3ccccc3)[C@]3(O)C[C@H](OC(=O)[C@H](O)[C@@H](NC(=O)CC(C)(C)C)c4ccccc4)C(C)=C1C3(C)C)C1(OC(C)=O)CO[C@@H]1C[C@@H]2O (some centres undefined) , please?
## Output > 10 µM (inactive)

## Input Recorded GI50 for CC1OC(OC2C(O)COC(OC3C(C)OC(OC4C(OC(=O)[C@]56CCC(C)(C)C[C@@H]5C5=CCC7[C@@]8(C)C[C@H](O)[C@H](OC9OC(CO)C(O)C(O)C9O)[C@@](C)(CO)[C@@H]8CC[C@@]7(C)[C@]5(C)CC6)OCC(O)C4O)C(O)C3O)C2O)C(O)C(O)C1O (some centres undefined) , please?
## Output 20.8 µM (inactive)

## Input Recorded GI50 for Cc1ccc(NC(=O)CC2C(=O)Nc3ccccc3[S+]2[O-])cc1C (centres undefined) , please?
## Output 16.4 µM (inactive)

## Input Recorded GI50 for O=C1/C(=C/C=C/c2ccccc2)N=C(c2ccccc2)N1C1Nc2cc3c(cc2S1)NC(N1C(=O)/C(=C/C=C/c2ccccc2)N=C1c1ccccc1)S3 (centres undefined) , please?
## Output 73.8 µM (inactive)

###

- System: A498
- experiment-summary: NCI tumour cell line growth inhibition, 48 h
The source made the active and inactive calls. No stated cut-off is given here; in the data, active = GI50 up to about 1.1 µM and inactive = higher.
reported-metric: GI50

CCOC(=O)C1C(C(C)C)C2(C#N)C(=N)OC1(C)C2(C#N)C#N (stereo not given); > 100 µM (inactive)
CC(=O)C(CN(C)Cc1ccccc1)C(c1ccccc1)c1c(O)c2ccccc2oc1=O (stereo not given); > 100 µM (inactive)
COCN1C(=O)[C@@H]2CCCN2C(=O)c2cc(Cl)ccc21; > 100 µM (inactive)
CCCNc1ncnc2c1cnn2C; > 100 µM (inactive)
COC(=O)c1cc(C)ccc1/C=C1\Cc2cccc(C)c2C1=O; 46.3 µM (inactive)
COc1ccc(CC(N)c2ccc(OC)cc2)cc1 (stereo not given); > 100 µM (inactive)
O=S(O)CCCCCSSc1ccc(Cl)cc1; 17 µM (inactive)
O=c1oc2ccccc2cc1P(=O)(O)O; > 100 µM (inactive)

## Input Recorded GI50 for C[C@]12CCC3c4ccc(O)cc4CC[C@H]3C1CC(=O)N(N)C2=O (stereo not given in full) , please?
## Output > 100 µM (inactive)

## Input Recorded GI50 for O=C(c1ccccc1)c1ccc2c(c1)nc1n2C(c2c(F)cccc2F)SC1 (stereo not given) , please?
## Output 19.5 µM (inactive)

###

Reported GI50 values follow for various compounds
- System: NCI-H23
- experiment-summary: NCI tumour cell line growth inhibition, 48 h
Calls of active or inactive are those of the source. Rule as the data show it: active = GI50 up to about 1.1 µM and inactive = higher.

CC(NC(NC(C)C12CC3CC(CC(C3)C1)C2)=C(C(Cl)=C(Cl)Cl)[N+](=O)[O-])C12CC3CC(CC(C3)C1)C2 (stereo not drawn); 7.96 µM (inactive)
O=C(O)CN1CCCC(Cc2c[nH]c3ccccc23)C1 (stereo not drawn); > 100 µM (inactive)
O=c1ncccn1C1OC(CO)C(O)C1O (stereo not drawn); > 100 µM (inactive)
CCc1cc(C(=O)OC)cn1C(=N)c1ccc(Cl)cc1; > 100 µM (inactive)
Cc1ncc([N+](=O)[O-])n1CC(O)Cn1cnc([N+](=O)[O-])n1 (stereo not drawn); > 100 µM (inactive)
O=c1[nH]c2ccc(C(F)(F)F)cc2nc1-c1ccccc1; > 100 µM (inactive)
CCC1(CC)C(=O)NC(=O)NC1=S; > 100 µM (inactive)

Next, consider the following compound.
## Input Recorded GI50 for O/N=C1/C(=C/c2ccc3c(c2)OCO3)CCCC1C(NO)c1ccc2c(c1)OCO2 (stereo not drawn) , please?
## Output 30.4 µM (inactive)

###

- Test system: SNB-19
- experiment-summary: NCI tumour cell line growth inhibition, 48 h
Calls of active or inactive are those of the source. No stated cut-off is given here; in the data, active = GI50 up to about 1.1 µM and inactive = higher.
Reported GI50 values follow for various molecules

Use the examples below as a reference point.
COC(=O)CNC(=O)CCSc1nnc(COc2ccc(Cl)cc2)n1-c1ccccc1; > 100 µM (inactive)
NP1(Oc2ccc(F)cc2)=NP(N)(Oc2ccc(F)cc2)=NP(Oc2ccc(F)cc2)(Oc2ccc(F)cc2)=N1 (stereo not given); 10.9 µM (inactive)
CCC(C)C1(O)OC2CC3(C)OC(=CC3=O)/C(C)=C\C3OC(=O)C1(C)C32 (stereo not given); 33.7 µM (inactive)
COc1ccc([C@@H]2CC(=O)NCCCNCCCCNCCCN2)cc1; > 100 µM (inactive)

Next, consider the following molecule.
## Input Recorded GI50 for CCCCCCCC(CC(=O)O)OC(=O)CC(CCCCCCC)OC1OC(C)C(O)C(O)C1OC1OC(C)C(O)C(O)C1O (stereo not given) , please?
## Output > 100 µM (inactive)

###

- Tested on: HCC 2998
- experiment-summary: NCI tumour cell line growth inhibition, 48 h
Calls of active or inactive are those of the source. Cut-off read from the data, not from the text of the source: active = GI50 up to about 1.1 µM and inactive = higher.
Reported GI50 values follow for various compounds

Cc1ccc(C(CC(=O)C(C)(C)CN2CCCCC2)SCCS(=O)(=O)O)cc1 (configuration not stated); 39.4 µM (inactive)

## Input So what GI50 did `COc1ccc(-c2cnoc2-c2ccc(OC)c(OC)c2)cc1OC` get with HCC 2998?
## Output 1.05 µM (active)

## Input So what GI50 did `O=S(=O)(O)c1ccc(/N=N/c2ccc(/N=N/c3c(O)ccc4ccccc34)c(S(=O)(=O)O)c2)cc1` get with HCC 2998?
## Output > 100 µM (inactive)

## Input So what GI50 did `COc1ccccc1/C=C1\NC(=S)N(/C=C2\C(=O)Oc3ccccc3C2=O)C1=O` get with HCC 2998?
## Output 53.7 µM (inactive)

## Input So what GI50 did `O=C1c2cccc3cc4ccccc4c(c23)C(=O)N1CCNCCN1C(=O)c2cccc3cc4ccccc4c(c23)C1=O` get with HCC 2998?
## Output 0.912 µM (active)

## Input So what GI50 did `COc1ccc(-c2cc(-c3ccc(Nc4ccnc5cc(C(F)(F)F)ccc45)cc3)nc(N)c2C#N)cc1` get with HCC 2998?
## Output > 100 µM (inactive)

## Input So what GI50 did O=C(O)CC1NCc2cc3ccccc3nc21 (configuration not stated) get with HCC 2998?
## Output > 100 µM (inactive)

## Input So what GI50 did CN1N(c2ccccc2)C(=O)C2=NC=C(C(=O)c3ccccc3)C(=N)C21C (configuration not stated) get with HCC 2998?
## Output > 100 µM (inactive)

## Input So what GI50 did O=C(O)c1ccc(C2C3C=CC(C3)C2[N+](=O)[O-])cc1 (configuration not stated) get with HCC 2998?
## Output > 100 µM (inactive)

## Input So what GI50 did CCC1(O)CC2CC(=O)OC2C1O (configuration not stated) get with HCC 2998?
## Output > 100 µM (inactive)

## Input So what GI50 did `COc1cc2c(cc1OCCCCOc1cc3c(cc1OC)C(=O)N1CCC[C@H]1C(=O)N3)N=C[C@@H]1CCCN1C2=O` get with HCC 2998?
## Output 11.7 µM (inactive)

## Input So what GI50 did `CCOC(=O)[C@@H]1C[C@H]1c1ccc(O)c(O)c1` get with HCC 2998?
## Output 31.6 µM (inactive)

## Input So what GI50 did `Oc1c(Cl)c(Cl)c(O)c(-c2cnc(-c3ncc(-c4c(O)c(Cl)c(Cl)c(O)c4Cl)s3)s2)c1Cl` get with HCC 2998?
## Output 36.6 µM (inactive)

## Input So what GI50 did CC(C)(CN1CCCCC1)C(=O)CC(SCCN)c1ccc(Cl)cc1 (configuration not stated) get with HCC 2998?
## Output 1.85 µM (inactive)

## Input So what GI50 did `COC(=O)c1sc2c(c1C(=O)OC)/C(=N/c1ccc(OC)cc1)S/C2=N\c1ccc(OC)cc1` get with HCC 2998?
## Output 1.69 µM (inactive)

## Input So what GI50 did `COc1ccc(N2CC(=O)N(C(=O)COc3ccc(OCC(=O)N4C(=O)CN(c5ccc(OC)cc5)C4=S)cc3)C2=S)cc1` get with HCC 2998?
## Output > 100 µM (inactive)

## Input So what GI50 did `CC1=CC(=O)/C(=C/NC(=O)NN)C(=O)O1` get with HCC 2998?
## Output > 100 µM (inactive)
